# EXPERIMENT: Primary imaging screen for DUSP6 inhibitors that restore phospho-Erk in transfected HeLa cells, chemical complementation (AID 609)
# CONDITION DETAILS: HeLa MKP-3 transfected, phospho-Erk imaging KS statistic; measured here: nuclear c-Myc green intensity z-score; at 10 µM; cells stimulated with TPA for 15 min
Decide using z-score: a value greater than or equal to 0.8 is YES, a smaller one is NO.

Before answering, review these 5 worked examples.
O=C(Oc1ccccc1)c1c(Cl)cccc1P(=O)(O)O	NO
CN(CCOC(=O)c1cccc(Br)c1)C(C)(C)C	YES
CC(=O)OCC(=O)[C@@]1(O)CC[C@H]2[C@@H]3CCC4=CC(=O)C=C[C@]4(C)[C@H]3[C@@H](O)C[C@@]21C	NO
CNCCC(Oc1ccc(C(F)(F)F)cc1)c1ccccc1 (stereo unspecified)	NO
CCCNCC(O)COc1ccccc1C(=O)CCc1ccccc1 (stereo unspecified)	NO

API: the following record is the query input.
**Q:** Does CN(C)CCCN1c2ccccc2Sc2ccccc21 have a reported z-score of at least 0.8?
**A:** YES

---

Each record here notes measured NADPH fluorescence slope.
# TARGET SYSTEM: Voltage-gated potassium channel subunit beta-2 (Rattus norvegicus) (UniProt P62483)
# Sequence (P62483 whole entry, looked up): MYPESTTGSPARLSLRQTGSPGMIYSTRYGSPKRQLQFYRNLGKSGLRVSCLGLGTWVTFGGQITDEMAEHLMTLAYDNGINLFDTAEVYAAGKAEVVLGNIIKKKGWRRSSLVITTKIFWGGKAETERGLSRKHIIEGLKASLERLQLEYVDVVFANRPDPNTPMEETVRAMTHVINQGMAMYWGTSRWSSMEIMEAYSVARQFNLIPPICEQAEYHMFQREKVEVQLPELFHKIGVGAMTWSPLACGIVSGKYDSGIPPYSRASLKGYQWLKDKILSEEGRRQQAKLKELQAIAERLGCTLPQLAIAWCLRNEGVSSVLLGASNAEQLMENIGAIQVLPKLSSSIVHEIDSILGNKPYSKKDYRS
# EXPERIMENT: enhancers of rat Kvbeta2 NADPH turnover – biochemical, NADPH fluorescence, primary screen (AID 623);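 further: fluorescence intensity change per second fitted from 20 to 320 s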
# CONDITION DETAILS: Recombinant KvBeta, NADPH fluorescence decrease slope, 10 min; at 10 µM; stronger effect = lower value
The response must contain the number and no unit.

Study these solved cases before continuing.
Cc1occc1C(=O)Nc1ccccc1NC(=O)c1ccoc1C	-3.1e-05
CCn1c(=N)n(CC(=O)C23CC4CC(CC(C4)C2)C3)c2ccccc21	-1.5e-05

The compound listed as CN1C(=O)C2(NCCc3c2[nH]c2ccccc32)c2ccccc21 (stereo not drawn) has a reported NADPH fluorescence slope of -0.000314

The compound listed as CCOC(=O)C1=C(C)Nc2ncnn2C1c1ccccc1F (stereo not drawn) has a reported NADPH fluorescence slope of -1.9e-05

The compound listed as CCN(CC)S(=O)(=O)N1CCC(C(=O)NCC2COc3ccccc3O2)CC1 (stereo not drawn) has a reported NADPH fluorescence slope of 2.9e-05

---

# TARGET SYSTEM: Voltage-gated potassium channel subunit beta-2 (Rattus norvegicus)
# EXPERIMENT: inhibitors of rat Kvbeta2 reductase activity – biochemical, NADPH fluorescence, primary screen (AID 622);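 further: slope of raw intensity against log time taken from 70 to 1610 s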
# CONDITION DETAILS: recombinant KvBeta, 4-cyanobenzaldehyde reduction, at 10 µM, stronger effect = higher value
Calls of active or inactive are those of the source.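 Rule for the calls: active = fluorescence slope higher than the sample average by over 3 SD (cut at about -0.22 in these data, passing the limit was not always enough); inactive = the rest.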
PARAMETER: fluorescence slope

Study these solved cases before continuing.
CCn1c(=O)cc(SCC(=O)N2CCOCC2)c2ccccc21	-0.549 (inactive)
CCCCCc1c(O)c2ccccc2[nH]c1=O	-0.565 (inactive)

Now let's try a different one.
The molecule listed as COc1ccc(-c2cn3cc(C)ccc3n2)cc1OC has a reported fluorescence slope of -0.357 (inactive)

---

Each record here notes measured inhibition.
# EXPERIMENT: TLR3 IRF3 reporter activation blockers – cell-based, poly I:C stimulus, luciferase, 10K MLSCN set, primary screen (AID 602277)
# CONDITION DETAILS: HEK293-TLR3 RL24 IRF3 luciferase reporter, at 10 µM, stronger effect = higher value
Field: numeric (%). Do not append units.

O=C(C1CCN(S(=O)(=O)N2CCC3(CC2)OCCO3)CC1)N1CCOCC1	-2.34
CCOC(=O)Nc1cc(OCC)c(NC(=O)C2CC2)cc1OCC	11.8
Nc1c(Sc2ccccc2)c(=O)[nH]c(=O)n1Cc1ccccc1	-2.56
Cn1c(=O)c(-c2ccccc2)nn2c3ccccc3nc12	17.5
CCOC(=O)CSc1nc2cc(C(=O)NCc3ccco3)ccc2c(=O)n1-c1ccc(F)cc1	-0.0676
COc1ccc(C(=O)N(Cc2ccco2)C(C(=O)NC2CCCC2)c2ccc(O)cc2)cc1OC (stereo not drawn)	12.6
Cc1cc(NC(=O)CSc2ccc3nnc(-c4cccc(F)c4)n3n2)no1	-7.4
O=c1c2c3c(sc2nc2sc(C4CC4)nn12)CCCC3	-51.7

The compound listed as CN1CCN(C(=O)c2ccccc2N(Cc2ccccc2)S(C)(=O)=O)CC1 has a reported inhibition of 4.8

The compound listed as N#CCc1nc(CSc2nc3ccccc3s2)cs1 has a reported inhibition of -87.8

The compound listed as O=S(=O)(NCCSc1ccccc1)c1cccs1 has a reported inhibition of 11.1

The compound listed as c1ccc2c(-c3nc(C4CCCCC4)no3)cc(-c3ccncc3)nc2c1 has a reported inhibition of 1.56

The compound listed as O=C(CCCN1CCC(O)(c2ccc(Cl)cc2)CC1)c1ccc(F)cc1 has a reported inhibition of -5.69

---

Each record here notes measured fluorescence slope.
# TARGET SYSTEM: Voltage-gated potassium channel subunit beta-2 (Rattus norvegicus) (UniProt P62483)
# EXPERIMENT: inhibitors of rat Kvbeta2 reductase activity – biochemical, NADPH fluorescence, primary screen (AID 622);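 further: slope of raw intensity against log time taken from 70 to 1610 s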
# CONDITION DETAILS: recombinant KvBeta, 4-cyanobenzaldehyde reduction, at 10 µM, stronger effect = higher value
Active and inactive are the calls of the source.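 How the source made its calls: active means fluorescence slope higher than the sample average by over 3 SD (cut at about -0.22 in these data, passing the limit was not always enough); inactive means the rest.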

COC(=O)CN(c1ccc(F)cc1)S(=O)(=O)c1ccccc1	-0.527 (inactive)

The compound listed as COc1ccc(C(=O)NCCn2ccc3ccccc32)cc1 has a reported fluorescence slope of -0.386 (inactive)

The compound listed as O=C(c1cnsn1)N1CCN(c2ccccn2)CC1 has a reported fluorescence slope of -0.45 (inactive)

The compound listed as CCCNC(=O)C1CN(S(=O)(=O)c2ccccc2)CCN1S(=O)(=O)c1ccccc1 (stereo unspecified) has a reported fluorescence slope of -0.512 (inactive)

The compound listed as CS(=O)(=O)N(CC(=O)N1CCCCCC1)c1ccccc1 has a reported fluorescence slope of -0.452 (inactive)

---

# EXPERIMENT: loss of swimming-algae plug formation – whole organism, Chlamydomonas reinhardtii, WT vs cilia-less mutant, absorbance, 96-well, primary screen (AID 463189);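 further: 0% = wild type cc124 cells in DMSO and 100% = ciliumless bld1 mutant cells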
# CONDITION DETAILS: Chlamydomonas reinhardtii gravitaxis, OD600 absorbance, 2 days; at 10 µM; stronger effect = higher value
PARAMETER: inhibition (%)
Field: numeric (%). Do not append units.

Study these solved cases before continuing.
CCCn1c(=O)c2[nH]c(-c3ccc(S(=O)(=O)O)cc3)nc2n(CCC)c1=O	1.25
CCSC(=N)N	4.79
O=S(=O)(c1cccc2c(Cl)cccc12)N1CCCNCC1	6.11
CC(C)(CO)Cc1cc(C(C)(C)C)c(O)c(C(C)(C)C)c1	-2.65
NC(=O)c1cccc(N)c1	3.55

The compound listed as O=C(O)c1cc2cc(Cc3cccnc3)ccc2o1 has a reported inhibition of -4.17

---

# EXPERIMENT: inhibitors of TNFa-induced NFkB p65 translocation, primary screen, imaging, HUVEC, MLSMR starter and 10KST1 sets (AID 438);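 further: compound added about 3h40 before a 20 min TNFalpha stimulation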
# CONDITION DETAILS: HUVEC TNFa-induced p65 nuclear translocation; measured here: nuclei count (cytotoxicity indicator), at 2.08 µM
Each record here notes measured cell count.

Study these solved cases before continuing.
Cc1nc2cccc(C(=O)NC3CCCCC3)c2o1	369
Cc1n[nH]c(C)c1S(=O)(=O)Nc1ccc2c(c1)OCCO2	328
ON1C2CCCCC2N(O)C1c1c(F)c(F)c(F)c(F)c1F (stereo not given)	431
Nc1nonc1-c1noc(-c2ccccc2Br)n1	384
CCOc1ccc(OCC)c2sc(C)nc12	339

The molecule listed as CCn1c(SCC(=O)N2CCCc3ccccc32)nnc1-c1cccs1 has a reported cell count of 697

The molecule listed as COc1ccccc1NC(=O)CC(NCc1ccccc1)C(=O)O (stereo not given) has a reported cell count of 405

---

# TARGET SYSTEM: Alpha-2C adrenergic receptor (Homo sapiens)
# EXPERIMENT: compounds altering alpha2C-coupled GIRK flux – cell-based, HEK293 alpha2C/GIRK1/2, thallium flux, primary screen (AID 624);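 further: slope of fluorescence ratio to pre-addition baseline per second over 15 to 24 s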
# CONDITION DETAILS: thallium flux BTC fluorescence, at 10 µM, actives lie on both sides
Decide using slope: a value greater than or equal to 0.005 is MET, a smaller one is NOT MET.

Before answering, review these 9 worked examples.
COc1cc(NS(=O)(=O)c2ccc(N)cc2)ncn1	NOT MET
Cn1c(=O)oc2cc(S(=O)(=O)NCCC(=O)N3CCc4ccccc4C3)ccc21	MET
CN1[C@@H]2CC(OC(=O)[C@H](CO)c3ccccc3)C[C@H]1[C@@H]1O[C@@H]12 (stereo partly specified)	MET
CN1Cc2c(N)cccc2C(c2ccccc2)C1 (stereo unspecified)	MET
COc1cc2nc(N3CCN(C(=O)C4COc5ccccc5O4)CC3)nc(N)c2cc1OC (stereo unspecified)	NOT MET
CCOc1ccc2[nH]c(C)cc(=O)c2c1	MET
O=C(O)c1ccc(COCC(F)(F)C(F)F)o1	NOT MET
NC(N)=Nc1nc(CSCC/C(N)=N/S(N)(=O)=O)cs1	MET
CCN1CCN(C(=O)N[C@@H](C(=O)N[C@@H]2C(=O)N3[C@@H]2SC(C)(C)[C@@H]3C(=O)O)c2ccccc2)C(=O)C1=O	MET

**Q:** Does Cc1cccc(N2CN=c3s/c(=C\c4ccncc4)c(=O)n3C2)c1 have a reported slope of at least 0.005?
**A:** NOT MET
